Target: T1, human PVRIG on cells (human, UniProt Q6DKI7 1-326)
T1 construct: whole, on cells; over-expressed on HEK cells or endogenous on Jurkat and CD8 T cells; also called hPVRIG; HEK hPVRIG cells
T1 sequence (looked up): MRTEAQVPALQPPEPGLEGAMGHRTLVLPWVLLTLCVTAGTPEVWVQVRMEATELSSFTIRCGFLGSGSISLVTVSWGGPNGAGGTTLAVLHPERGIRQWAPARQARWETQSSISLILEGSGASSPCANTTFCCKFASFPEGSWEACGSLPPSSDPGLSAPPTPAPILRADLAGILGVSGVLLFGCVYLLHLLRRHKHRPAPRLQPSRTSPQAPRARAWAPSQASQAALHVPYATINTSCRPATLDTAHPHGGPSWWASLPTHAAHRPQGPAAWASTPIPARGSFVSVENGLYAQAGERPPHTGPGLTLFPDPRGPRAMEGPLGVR
Experiment: FACS, human PBMC, CD56 int. NK cells, 10ug/ml
metric: gMFIr Human CD56 int. NK
Lab note: record the figure alone, no unit after it.

What the record says about CHA.7.510 (antibody, V domains shown) VH: QVTLKESGPGILQPSQTLSLTCSFSGFSLNTSGTGVGWIRQPSGKGLEWLTHIWWNDNKFYNTFLKSRLTISKETSNNQVFLKIASVDTADAATYYCARMAYGNLWFVNWGQGTLVAVST VL: DIVLTQSPASLAVSLGQRASISCRASRSVTISGYSYMYWYQQKPGQPPRLLFYLASNLASGVPARFSGSGSGTDFTLNIHPVEEEDAAIYYCQHSRELPYTFGGGTKLEIK : gMFIr Human CD56 int. NK is 3.13

What the record says about CHA.7.502 (antibody, V domains shown) VH: DVQLVESGGDLVQPGGSRKLSCTASGFTFSNFGMHWVRQAPEKGLEWVAYISSGSSTIYYADTVKGRFTISRDNPENTLFLQMTSLRSEDTAMYYCTRLDYYTNSYSMDHWGQGTSVTVSS VL: QIVLTQSPALMSASPGEKVTLTCSASSSLPYIYWYQQKPGSSPKPWIYLTSNLASGVPARFSGSRSGTSYSLTISSVEAEDAATYYCQQWSSNPFTFGSGTKLEIK : gMFIr Human CD56 int. NK is 1.97

What the record says about CHA.7.522 (antibody, V domains shown) VH: QVQLQQPGSELVRPGTSVKLSCKASGYTFTSYWVHWVRQRHGQGLEWIGNVYPGSGSTNYDEKFKSKGTLTVDTSSSTAYMHLSSLTSEDSAVYYCTRGVLRFPLDYWGQGTTLTVSS VL: DIVMTQAAPSVPVTPGESVSISCRSSKSLLHSNGNTYLYWFLQRPGQSPHLLIYRMSNLASGVPDRFSGSGSGTAFTLRISRVEAEDVGVYYCMQHLEYPLTFGAGTKLELK : gMFIr Human CD56 int. NK is 2.06

What the record says about CHA.7.526 (antibody, V domains shown) VH: QVQLKESGPGLVAPSQSLSITCTVSGFSLTAYNINWVRQPPGKGLEWLGMIWGDGNTDYNSPLKSRLTISKDNSKSQVFLKMDSLQTDDTARYYCARDLKVRRDSPYTMDYWGQGTSVTVSS VL: NIMMTQSPSSLAVSAGEKVTMSCKSSQSVLYSSNQKNYLAWYQQKPGQSPKLLIYWASNRESGVPDRFTGSGSGTDFTLTISSVQAEDLAVYYCHQYLSSYTFGGGTKLEIK : gMFIr Human CD56 int. NK is 2.08

What the record says about CHA.7.545 (antibody, V domains shown) VH: QIQLVQSGPDLKKPGETVKISCKASGYTFTTYGMSWVKQAPGRGLKWMGWINTYSGVSTFPDDFKGRFAFSLETSASTAYLQINNLKNEDSATYFCARLGMGSTTGAGYFDVWGTGTTVTVSS VL: DIVLTQSPAIMSASPGEKVTMTCSASSSVSSWYLHWYQQKSGASPKLWIYGTSNLASGVPARFSGSGSGTSYSLTISSVEAEDAATYYCQQYRSDPYTFGSGTKLEIK : gMFIr Human CD56 int. NK is 2.54

What the record says about CHA.7.550 (antibody, V domains shown) VH: QVQLQESGTELVKPGASVKLSCKASGYTFTSYWIHWVKQRPGQGLEWIGNINPSNGGTNYNEKFKSKAALTVDKSSSTAYMQLSSLTSEDSAVYYCARRGLPYFFDYWGQGTTLTVSS VL: DIVMTQSQKFMSTSVGDRVSVTCKGSQNVGYNVAWYQQKPGQSPKALVYSASDRHSGVPDRFAGSGSGTDFTLTISNVQSEDLAEYFCQQYNSYPLTFGAGTKLELK : gMFIr Human CD56 int. NK is 1.6

What the record says about CHA.7.537 (antibody, V domains shown) VH: QVQLKESGPGLVAPSQSLSITCTVSGFSLIGHGVNWIRQPPGKGLEWLGVIWGDGNTDYNSALKSRLSISKDNSKSQVFLKMNSLQTDDTARYFCAVNSAMDYWGQGTAVTVSS VL: NIVMTQSPKSMSMSVGERVTLNCTASENVASFVSWYQQKPEQSPKLLIYGTSNRYTGVPDRFTGSGSATDFTLTISSVQAEDLGDYHCGQSYNYPFTFGSGTKLEIE : gMFIr Human CD56 int. NK is 3.9

What the record says about CHA.7.530 (antibody, V domains shown) VH: QVQLQQSGAELMRPGTSVKVSCKASGYAFTNHLIEWIKQRPGQGLEWIGVINPGSDSTDYNEKFKDKATLTADKSSSTAYMQLSSLTSDDSAVYFCARSLYYNSWFVYWGQGTLVTVSA VL: DIQMTQSPASLSASVGETVTITCRASENIYSYLAWYQQKRGKSPQLLVYNAKTLVEGVPSRFSGSGSGTQFSLKINSLQPEDFGSYYCQHHYGTPYTFGGGTKLEIK : gMFIr Human CD56 int. NK is 6.04

What the record says about CHA.7.524 (antibody, V domains shown) VH: QVQLQQSGPEVVRPGVSVKISCKGSGYKFPDYVMHWVKQSHAKSLEWIGIISIYSGNTNYNQKFKGKATMTVDKSSSTAYMELARLTSEDSAIYYCAREGDLPMFAYWGQGTLVTVSA VL: QIVLTQSPAIMSASPGEKVTMTCNASSSVSYMYWYQQKPISSPRLLIYDTSNLASGVPVRFSGSGSGTSYSLTIGRMEAEDAATYYCQQWSSYPLTFGAGTKVEVK : gMFIr Human CD56 int. NK is 5.5

What the record says about CHA.7.535 (antibody, V domains shown) VH: EVQLQQSGPELVKPGASVKISCKTSGYTFTKNTMHWVRQSHGKSLEWIGGINPNSGGASFNQKFMGKATLTVDKSSSTAYMELRSLTSEDSAVYYCARDGYDGDWFFDVWGAGTTVTVSS VL: DIQMNQSPFSLSASLGDTVTITCHASQNIYVWLSWYQQKPGNIPKLLIYKASDLHTGVPSRFSGSGSGTDFTLNISSLQPEDIATYYCQQGQSYPRTFGGGTKLEIK : gMFIr Human CD56 int. NK is 2.24

What the record says about CHA.7.548 (antibody, V domains shown) VH: EVQLQQSGPELVKPGASVKISCKASGYTFTDYSMNWVKQSHGKSLEWIGDITPNNGSPNYNQKFKDKATLTVDKSSSTVYMELRSLTSEDSAVYYCASLFFDYWGHGTTLTVSS VL: DIVMTQSPSSLSVSAGEKVTMSCKSSQSLLNSGNQKNYLAWYQQKPGQPPKLLIYGASTRDSGVPDRFTGSGSGTDFTLTITSVQAEDLAVYYCQNDHTYPYTFGGGTKLEIK : gMFIr Human CD56 int. NK is 3.15
